TARGET OR SYSTEM: Acetylcholine receptor; alpha1/beta1/delta/gamma (Homo sapiens, UniProt P02708+P07510+P11230+Q07001)
Sequence (P02708 whole entry): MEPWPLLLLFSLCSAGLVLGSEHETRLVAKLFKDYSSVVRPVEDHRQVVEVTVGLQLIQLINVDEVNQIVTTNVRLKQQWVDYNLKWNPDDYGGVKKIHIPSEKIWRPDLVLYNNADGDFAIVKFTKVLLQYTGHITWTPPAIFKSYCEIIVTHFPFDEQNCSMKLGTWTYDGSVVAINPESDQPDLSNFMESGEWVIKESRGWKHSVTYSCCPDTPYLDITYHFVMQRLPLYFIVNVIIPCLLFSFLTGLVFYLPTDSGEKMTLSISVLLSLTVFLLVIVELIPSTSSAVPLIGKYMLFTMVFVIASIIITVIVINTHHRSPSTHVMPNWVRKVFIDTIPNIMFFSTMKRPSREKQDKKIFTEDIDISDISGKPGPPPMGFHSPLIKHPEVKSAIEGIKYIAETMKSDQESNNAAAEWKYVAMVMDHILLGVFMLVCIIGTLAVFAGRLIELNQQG
Sequence (P07510 whole entry): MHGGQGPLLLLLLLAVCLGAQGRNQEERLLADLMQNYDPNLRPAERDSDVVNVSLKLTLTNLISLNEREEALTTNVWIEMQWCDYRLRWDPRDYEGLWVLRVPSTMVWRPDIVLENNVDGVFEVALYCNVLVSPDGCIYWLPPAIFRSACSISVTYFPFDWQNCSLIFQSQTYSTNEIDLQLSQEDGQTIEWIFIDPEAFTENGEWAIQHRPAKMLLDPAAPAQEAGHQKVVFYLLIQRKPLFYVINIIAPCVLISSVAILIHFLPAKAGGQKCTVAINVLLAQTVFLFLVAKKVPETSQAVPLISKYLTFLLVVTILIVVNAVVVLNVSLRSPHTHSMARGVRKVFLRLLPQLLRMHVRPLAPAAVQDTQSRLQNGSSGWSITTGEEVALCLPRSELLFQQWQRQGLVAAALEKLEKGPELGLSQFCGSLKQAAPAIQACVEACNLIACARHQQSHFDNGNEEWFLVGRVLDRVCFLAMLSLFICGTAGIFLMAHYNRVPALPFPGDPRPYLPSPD
Sequence (P11230 whole entry): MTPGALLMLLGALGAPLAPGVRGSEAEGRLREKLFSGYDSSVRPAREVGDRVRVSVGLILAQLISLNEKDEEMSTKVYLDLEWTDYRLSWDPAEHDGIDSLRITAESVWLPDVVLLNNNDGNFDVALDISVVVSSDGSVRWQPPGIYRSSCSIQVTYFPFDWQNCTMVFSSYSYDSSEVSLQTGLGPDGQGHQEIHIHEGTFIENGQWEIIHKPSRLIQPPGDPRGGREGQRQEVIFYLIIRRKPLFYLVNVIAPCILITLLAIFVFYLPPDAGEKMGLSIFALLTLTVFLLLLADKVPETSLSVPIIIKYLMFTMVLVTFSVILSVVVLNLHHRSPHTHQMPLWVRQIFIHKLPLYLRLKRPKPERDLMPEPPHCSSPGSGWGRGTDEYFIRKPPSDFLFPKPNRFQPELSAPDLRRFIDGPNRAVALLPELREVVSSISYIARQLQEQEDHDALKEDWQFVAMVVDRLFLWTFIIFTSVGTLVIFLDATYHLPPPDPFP
Sequence (Q07001 whole entry): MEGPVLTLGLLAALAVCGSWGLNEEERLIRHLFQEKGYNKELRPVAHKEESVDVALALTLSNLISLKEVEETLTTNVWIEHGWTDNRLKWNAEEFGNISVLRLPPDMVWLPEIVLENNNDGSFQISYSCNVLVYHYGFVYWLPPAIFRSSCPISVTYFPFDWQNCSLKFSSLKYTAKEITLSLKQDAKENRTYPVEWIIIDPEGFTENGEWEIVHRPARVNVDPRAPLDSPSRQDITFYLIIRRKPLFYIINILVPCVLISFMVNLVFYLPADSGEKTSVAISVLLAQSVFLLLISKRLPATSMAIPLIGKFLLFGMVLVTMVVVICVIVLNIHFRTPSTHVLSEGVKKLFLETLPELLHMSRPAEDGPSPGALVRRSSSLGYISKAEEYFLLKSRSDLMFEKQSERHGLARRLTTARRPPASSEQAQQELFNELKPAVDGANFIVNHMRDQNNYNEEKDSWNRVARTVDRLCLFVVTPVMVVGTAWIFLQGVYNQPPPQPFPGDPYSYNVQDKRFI
TEST DESCRIPTION: Binding affinity to muscle type alpha1beta1gammadelta-nAChR
Format: protein-complex assay, Muscle tissue
pKi: −log10 of the molar value.
VALUE TYPE: pKi

[[record]]
smiles_notation = "c1cncc(OC[C@@H]2CCN2)c1"
value_type = "pKi"
value_reported = 6.50


###

TARGET OR SYSTEM: Neuronal acetylcholine receptor; alpha4/beta2 (Homo sapiens, UniProt P17787+P43681)
Sequence (P17787 whole entry): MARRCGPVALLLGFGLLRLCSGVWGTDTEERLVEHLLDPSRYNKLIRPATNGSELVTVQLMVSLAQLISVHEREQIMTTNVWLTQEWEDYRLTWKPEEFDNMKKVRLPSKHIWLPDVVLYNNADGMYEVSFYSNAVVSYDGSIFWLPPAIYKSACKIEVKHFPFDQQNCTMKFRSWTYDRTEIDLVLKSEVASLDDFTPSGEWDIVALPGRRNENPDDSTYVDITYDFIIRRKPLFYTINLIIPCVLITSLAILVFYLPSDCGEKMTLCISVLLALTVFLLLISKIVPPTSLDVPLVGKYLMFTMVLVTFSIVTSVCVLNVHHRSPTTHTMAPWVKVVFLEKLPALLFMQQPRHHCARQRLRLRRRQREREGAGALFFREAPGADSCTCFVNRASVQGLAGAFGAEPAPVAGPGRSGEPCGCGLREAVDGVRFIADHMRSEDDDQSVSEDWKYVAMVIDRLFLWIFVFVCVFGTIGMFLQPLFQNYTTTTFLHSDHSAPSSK
Sequence (P43681 whole entry): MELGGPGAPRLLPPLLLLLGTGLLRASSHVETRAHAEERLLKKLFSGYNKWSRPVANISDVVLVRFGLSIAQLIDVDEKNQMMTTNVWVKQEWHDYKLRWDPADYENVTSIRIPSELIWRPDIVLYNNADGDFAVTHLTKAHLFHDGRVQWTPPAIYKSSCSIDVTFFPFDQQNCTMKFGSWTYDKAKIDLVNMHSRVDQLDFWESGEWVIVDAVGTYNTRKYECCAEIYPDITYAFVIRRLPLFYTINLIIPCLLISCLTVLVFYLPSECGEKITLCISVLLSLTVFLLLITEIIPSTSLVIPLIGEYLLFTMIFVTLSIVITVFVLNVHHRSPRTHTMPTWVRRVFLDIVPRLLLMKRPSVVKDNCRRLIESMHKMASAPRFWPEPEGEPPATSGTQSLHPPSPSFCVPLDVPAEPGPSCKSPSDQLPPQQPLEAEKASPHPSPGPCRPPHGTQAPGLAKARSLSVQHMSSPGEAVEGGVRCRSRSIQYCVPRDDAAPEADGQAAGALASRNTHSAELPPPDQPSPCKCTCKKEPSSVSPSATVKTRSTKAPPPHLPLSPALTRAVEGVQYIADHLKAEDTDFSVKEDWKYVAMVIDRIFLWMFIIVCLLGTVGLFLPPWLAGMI
TEST DESCRIPTION: Antagonist activity at human alpha4beta2 nAChR expressed in human SH-EP1 cells assessed as inhibition of 86Rb+ efflux preincubated for 10 mins by liquid scintillation counting
pIC50: −log10 of the molar value.
VALUE TYPE: pIC50

[[record]]
smiles_notation = "c1ncc(-c2cc(CCN3CCOCC3)no2)cc1OC[C@@H]1CCCN1"
target_or_system = "Neuronal acetylcholine receptor; alpha4/beta2 (Homo sapiens, UniProt P17787+P43681)"
value_type = "pIC50"
value_reported = "< 7.00"

[[record]]
smiles_notation = "c1ncc(-c2cc(CCN3CCOCC3)no2)cc1OC[C@@H]1CCN1"
target_or_system = "Neuronal acetylcholine receptor; alpha4/beta2 (Homo sapiens, UniProt P17787+P43681)"
value_type = "pIC50"
value_reported = "< 7.00"


###

TARGET OR SYSTEM: Neuronal acetylcholine receptor; alpha3/beta4 (Homo sapiens, UniProt P30926+P32297)
Sequence (P30926 whole entry): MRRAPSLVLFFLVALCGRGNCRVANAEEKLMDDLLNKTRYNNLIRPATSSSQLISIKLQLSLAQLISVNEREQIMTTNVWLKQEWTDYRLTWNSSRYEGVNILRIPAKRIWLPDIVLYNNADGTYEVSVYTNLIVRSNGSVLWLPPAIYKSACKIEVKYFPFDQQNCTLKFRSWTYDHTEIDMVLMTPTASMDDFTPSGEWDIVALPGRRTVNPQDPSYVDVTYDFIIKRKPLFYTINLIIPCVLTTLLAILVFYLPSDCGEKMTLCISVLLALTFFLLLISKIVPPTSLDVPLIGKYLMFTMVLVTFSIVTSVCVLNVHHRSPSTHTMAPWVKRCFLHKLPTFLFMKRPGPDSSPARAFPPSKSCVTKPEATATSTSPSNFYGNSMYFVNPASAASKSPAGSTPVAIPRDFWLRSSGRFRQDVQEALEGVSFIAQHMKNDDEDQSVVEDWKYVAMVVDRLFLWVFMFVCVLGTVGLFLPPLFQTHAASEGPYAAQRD
Sequence (P32297 whole entry): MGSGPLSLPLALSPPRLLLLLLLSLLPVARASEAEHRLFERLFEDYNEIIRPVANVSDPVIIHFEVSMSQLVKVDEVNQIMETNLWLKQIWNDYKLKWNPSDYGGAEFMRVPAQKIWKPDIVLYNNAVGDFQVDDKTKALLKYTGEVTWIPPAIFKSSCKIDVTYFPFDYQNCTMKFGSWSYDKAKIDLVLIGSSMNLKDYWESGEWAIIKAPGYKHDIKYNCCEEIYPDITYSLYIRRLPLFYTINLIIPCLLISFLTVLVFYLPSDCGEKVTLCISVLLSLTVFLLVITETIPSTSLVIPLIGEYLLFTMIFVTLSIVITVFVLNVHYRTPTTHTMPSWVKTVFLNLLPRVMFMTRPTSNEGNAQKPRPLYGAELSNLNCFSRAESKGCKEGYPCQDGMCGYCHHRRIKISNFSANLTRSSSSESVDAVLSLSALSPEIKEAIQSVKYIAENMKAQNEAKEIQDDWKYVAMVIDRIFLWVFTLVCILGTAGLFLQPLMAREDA
TEST DESCRIPTION: Agonist activity at human alpha3beta4 nAChR expressed in human SH-SY5Y cells assessed as stimulation of 86Rb+ efflux preincubated for 10 mins by liquid scintillation counting
VALUE TYPE: EC50

[[record]]
smiles_notation = "c1ncc(-c2cc(CCN3CCOCC3)no2)cc1OC[C@@H]1CCCN1"
value_type = "EC50"
value_reported = "> 1 µM"

[[record]]
smiles_notation = "c1ncc(-c2cc(CCN3CCOCC3)no2)cc1OC[C@@H]1CCN1"
value_type = "EC50"
value_reported = "> 1 µM"


###

TARGET OR SYSTEM: Acetylcholine receptor; alpha1/beta1/delta/gamma (Homo sapiens, UniProt P02708+P07510+P11230+Q07001)
TEST DESCRIPTION: Antagonist activity at human alpha1beta1gammadelta nAChR expressed in human TE671/RD cells assessed as inhibition of 86Rb+ efflux preincubated for 10 mins by liquid scintillation counting
molecules and their reported IC50
VALUE TYPE: IC50

[[record]]
smiles_notation = "CCc1cc(-c2cncc(OC[C@H]3NC[C@@H]4C[C@@H]43)c2)on1"
value_reported = "> 1000 nM"

[[record]]
smiles_notation = "CCNC(=O)OCCc1cc(-c2cncc(OC[C@@H]3CCCN3)c2)on1"
value_reported = "> 1000 nM"

[[record]]
smiles_notation = "CCc1cc(-c2cncc(OC[C@@H]3CCN3)c2)on1"
value_reported = "> 1000 nM"

[[record]]
smiles_notation = "CN1CCC[C@H]1COc1cncc(-c2cc(CCO)no2)c1"
value_reported = "> 1000 nM"

[[record]]
smiles_notation = "O=C(Nc1ccccc1)OCCc1cc(-c2cncc(OC[C@@H]3CCCN3)c2)on1"
value_reported = "> 1000 nM"

[[record]]
smiles_notation = "c1ncc(-c2cc(CCN3CCOCC3)no2)cc1OC[C@@H]1CCN1"
value_reported = "> 1000 nM"

[[record]]
smiles_notation = "OCCc1cc(-c2cncc(OC[C@H]3NC[C@@H]4C[C@@H]43)c2)on1"
value_reported = "> 1000 nM"

[[record]]
smiles_notation = "OCCc1cc(-c2cncc(OC[C@@H]3CCN3)c2)on1"
value_reported = "> 1000 nM"

[[record]]
smiles_notation = "FC(F)(F)CCc1cc(-c2cncc(OC[C@@H]3CCN3)c2)on1"
value_reported = "> 1000 nM"

[[record]]
smiles_notation = "OCCCc1cc(-c2cncc(OC[C@@H]3CCCN3)c2)on1"
value_reported = "> 1000 nM"

[[record]]
smiles_notation = "FC(F)CCc1cc(-c2cncc(OC[C@@H]3CCN3)c2)on1"
value_reported = "> 1000 nM"


###

compounds and their reported pIC50
TARGET OR SYSTEM: Neuronal acetylcholine receptor; alpha3/beta4 (Homo sapiens, UniProt P30926+P32297)
TEST DESCRIPTION: Antagonist activity at human alpha3beta4 nAChR expressed in human SH-SY5Y cells assessed as inhibition of 86Rb+ efflux preincubated for 10 mins by liquid scintillation counting
pIC50: −log10 of the molar value.
VALUE TYPE: pIC50

[[record]]
smiles_notation = "c1ncc(-c2cc(CCN3CCOCC3)no2)cc1OC[C@@H]1CCCN1"
value_reported = "< 6.00"

[[record]]
smiles_notation = "c1ncc(-c2cc(CCN3CCOCC3)no2)cc1OC[C@@H]1CCN1"
value_reported = "< 6.00"

